System: NCI/ADR-RES ovarian
PROTOCOL TEXT: NCI-60 one-dose screen, 48 h
TEST SETTINGS: 10 µM unless noted
Compounds without any hit were thinned out: in the full panel of roughly 83,000, 20% have a hit. Active and inactive are the calls of the source. How the source made its calls: active means growth percent below 10; inactive means the rest.
Mark one answer only. Choices: label 1 = active, label 0 = inactive

Query block: Answer briefly: the call reported for O=C(O)Cn1c(O)c(/C=C2/C=c3cc4c(cc3=NC2=O)OCCO4)sc1=S in this assay.
Result block: label 0

Query block: Try COc1ccc(-c2nc(SCC(C)C)nc(NCCc3c[nH]c4ccccc34)c2C#N)cc1 next.
Result block: label 0

Query block: Try CCCCSc1nc(Nc2ccc(S(N)(=O)=O)cc2)c(C#N)c(-c2cc(OC)c(OC)c(OC)c2)n1 next.
Result block: label 0

Query block: Try COc1ccc(NC(=O)[C@@H](N)Cc2ccccc2)cc1C(=O)Nc1cccc(C2CC(=O)c3c(cc(OC)c(OC)c3OC)O2)c1 (some centres undefined) next.
Result block: label 0

Query block: Try COc1c(F)ccc(C(=O)Nc2ccc3nc(NC(=O)C4CCCN(S(=O)(=O)c5ccc(Br)c(F)c5)C4)sc3c2)c1F (centres undefined) next.
Result block: label 0

Query block: Try Cc1cc(=O)oc2cc(OCCOc3ccc(/C=C/C(=O)Nc4ccccc4N)cc3)ccc12 next.
Result block: label 0

Query block: Try COc1cccc(-c2c(C#N)c(-c3ccc(Cl)cc3)nc3n[nH]c(-c4ccc(Cl)cc4)c23)c1 next.
Result block: label 0

Query block: Try O=C1Nc2ccc([N+](=O)[O-])cc2C1=Nc1ccccc1 next.
Result block: label 0

Query block: Try COc1ccc([C@H](C)Nc2nc(Cl)nc3ccccc23)cc1 next.
Result block: label 0

Query block: Try CN(C)c1nc(NCCNS(=O)(=O)c2ccc(C3=Nc4c(N)nc(N)nc4NC(c4ccc(F)cc4)C3)cc2)nc(Nc2ccc(F)cc2)n1 (centres undefined) next.
Result block: label 0

Query block: Try O=S(=O)(Nc1cccc(-n2cnc3cc(-c4ccc(O)cc4)ccc32)c1)C1CC1 next.
Result block: label 0

Query block: Try CCOC(=O)COc1c(OC)c(OC)cc2oc(-c3cccc(C(=O)Nc4ccc(Cl)cc4)c3)cc(=O)c12 next.
Result block: label 0

Query block: Try CNS(=O)(=O)c1ccc(Nc2ccc(C(F)(F)F)cc2)c(-c2cn(C)cn2)c1 next.
Result block: label 0

Query block: Try O=C(c1ccc(OCCN2CCOCC2)cc1)C1[C@H](c2ccc(Cl)cc2)[C@@H](c2ccccc2)NC12C(=O)Nc1ccc(Br)cc12 (some centres undefined) next.
Result block: label 0

Query block: Try CC(=O)c1c(N)c(C#N)cn1-c1ccc(Cl)cc1Cl next.
Result block: label 0

Query block: Try c1ccc(-c2csc(Nc3cccc(Nc4nc(-c5ccccc5)cs4)c3)n2)cc1 next.
Result block: label 0

Query block: Try CCN(CC)c1ccnc(CNCCSC(c2ccccc2)(c2ccccc2)c2ccc(OC)cc2)c1 next.
Result block: label 1

Query block: Try Cn1cc(-c2nc(N)nnc2-c2c[nH]c3ccc(Br)cc23)c2cccnc21 next.
Result block: label 0

Query block: Try COc1cc(OC)c2c3nc4cc(C)c(C)cc4nc3n(CCN(C)C)c2c1 next.
Result block: label 1
